- Species: Rattus norvegicus
- protocol-description: Open TG-GATES - Regimen: Single
- Type: toxicity, organism-based, Sprague-Dawley
- Set-up: regimen Single, gender Male, age 6 weeks
- test-settings: in vivo, po, 0 mg/kg, 3 h, tissue Kidney, route gavage, dose level Control
Exercise: state measured KIDNEY_R for each of the compounds provided.
Please state the figure in g; there is no need to write the unit.

Given item `O=C(CCCN1CCC(O)(c2ccc(Cl)cc2)CC1)c1ccc(F)cc1` , the value recorded as its KIDNEY_R is 1

Consider COc1ccc2[nH]c([S+]([O-])Cc3ncc(C)c(OC)c3C)nc2c1 (centres undefined) . Its measured KIDNEY_R is 0.9

For record `CN(C)CCCN1c2ccccc2CCc2ccc(Cl)cc21` the listed KIDNEY_R is 1

The compound identified as `CC/C(=C(\c1ccccc1)c1ccc(OCCN(C)C)cc1)c1ccccc1` registered its KIDNEY_R at 0.8

Entry CCCNC(=O)NS(=O)(=O)c1ccc(Cl)cc1 [CHLORPROPAMIDE] , KIDNEY_R reported as 0.9

get_value(item= `COC1=CC(=O)C[C@@H](C)[C@]12Oc1c(Cl)c(OC)cc(OC)c1C2=O` , readout=KIDNEY_R) returns 1

Given item `NC(N)=Nc1nc(CSCCC(N)=NS(N)(=O)=O)cs1` , the value recorded as its KIDNEY_R is 1

Sure, the documented KIDNEY_R for `CC1=C(/C=C/C(C)=C/C=C/C(C)=C/CO)C(C)(C)CCC1` is 0.9

Record summary for `CN(C)CCCN1c2ccccc2CCc2ccccc21` : reported KIDNEY_R = 0.9

---

What DBIL was measured for each of the following?
- Species on record: Rattus norvegicus
- protocol-description: Open TG-GATES - Regimen: Single
- Format: toxicity, organism-based, Sprague-Dawley
- Set-up: regimen Single, gender Male, age 6 weeks
- test-settings: in vivo, po, 300 mg/kg, 6 h, tissue Plasma, route gavage, dose level Middle
Numbers only; they are read as mg/dL.

Item: `NC(N)=Nc1nc(CSCCC(N)=NS(N)(=O)=O)cs1` | DBIL: 0.07

For reference, reported DBIL for CCOC(=O)CCC(=O)O[C@H]1[C@H](O[C@@H]2[C@@H](C)[C@H](O[C@H]3C[C@@](C)(OC)[C@@H](O)[C@H](C)O3)[C@@H](C)C(=O)O[C@H](CC)[C@@](C)(O)[C@H](O)[C@@H](C)C(=O)[C@H](C)C[C@@]2(C)O)O[C@H](C)C[C@@H]1N(C)C [ERYTHROMYCIN ETHYLSUCCINATE] stands at 0

Per the records, this molecule ( COc1ccc2[nH]c([S+]([O-])Cc3ncc(C)c(OC)c3C)nc2c1 (centres undefined) ) has DBIL equal to 0.066

// DBIL value for `COC1=CC(=O)C[C@@H](C)[C@]12Oc1c(Cl)c(OC)cc(OC)c1C2=O` : 0.096

---

- Species: Rattus norvegicus
- protocol-description: Open TG-GATES - Regimen: Single
- Format: toxicity, organism-based, Sprague-Dawley
- Design: regimen Single, gender Male, age 6 weeks
- test-settings: in vivo, po, 0 mg/kg, 6 h, tissue Plasma, route gavage, dose level Control
Provide the reported PL of each item.
Output should be the measured figure followed by the unit it is expressed in.

`CN(C)CCN(Cc1cccs1)c1ccccn1` has a reported PL of 127.2 mg/dL

Looking up `NC(N)=Nc1nc(CSCCC(N)=NS(N)(=O)=O)cs1` , I found its PL recorded as 142.8 mg/dL

get_value(item= `Cc1ccc(C)c(OCCCC(C)(C)C(=O)O)c1` , readout=PL) returns 156 mg/dL

Memo: CCOC(=O)CCC(=O)O[C@H]1[C@H](O[C@@H]2[C@@H](C)[C@H](O[C@H]3C[C@@](C)(OC)[C@@H](O)[C@H](C)O3)[C@@H](C)C(=O)O[C@H](CC)[C@@](C)(O)[C@H](O)[C@@H](C)C(=O)[C@H](C)C[C@@]2(C)O)O[C@H](C)C[C@@H]1N(C)C [ERYTHROMYCIN ETHYLSUCCINATE] , reported PL: 139.8 mg/dL

Lab note: measured PL of `C[C@@H]1C[C@H]2[C@@H]3CCC4=CC(=O)C=C[C@]4(C)[C@@]3(F)[C@@H](O)C[C@]2(C)[C@@]1(O)C(=O)CO` was 149.6 mg/dL

The recorded PL for `CN(C)CCCN1c2ccccc2CCc2ccc(Cl)cc21` is 142.6 mg/dL

Reported PL ( COc1ccc2[nH]c([S+]([O-])Cc3ncc(C)c(OC)c3C)nc2c1 (configuration not stated) ) = 141.4 mg/dL
